# key: entry, value: IC50
biological target: recombinant human KLK5 (Homo sapiens, UniProt Q9Y337); assay: Kallikrein (KLK) 5 enzymatic assay (Boc-VPR-AMC fluorogenic substrate); settings: recombinant human KLK5 0.1 μg/well, Boc-VPR-AMC 100 μM, pH 7.5, room temperature, 1% DMSO; tested a minimum of three times
Sequence (Q9Y337 23-293): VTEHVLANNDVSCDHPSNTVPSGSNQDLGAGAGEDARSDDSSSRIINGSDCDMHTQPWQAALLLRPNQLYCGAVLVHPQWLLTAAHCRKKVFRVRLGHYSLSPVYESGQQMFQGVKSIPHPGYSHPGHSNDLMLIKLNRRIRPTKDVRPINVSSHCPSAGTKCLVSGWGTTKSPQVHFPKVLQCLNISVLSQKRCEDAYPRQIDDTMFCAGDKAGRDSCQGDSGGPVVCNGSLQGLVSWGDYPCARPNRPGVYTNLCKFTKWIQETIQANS

Consider the worked cases shown below.
{"molecule": "Nc1nccc2ccc(-c3ccc4c(c3)c(COc3ccccc3CC(=O)O)nn4C3CCOCC3)cc12 [Compound 281g]", "IC50": "< 1000 nM"}
{"molecule": "COCCN1CC(n2nc3ccc(-c4cccc5c(N)nccc45)cc3c2COc2ccccc2CC(=O)O)C1 [Compound 120c]", "IC50": "< 1000 nM"}
{"molecule": "CC(C)(C)OC(=O)N1CC(Cn2nc(COc3ccccc3CC(=O)O)c3cc(-c4cccc5c(N)nccc45)ccc32)C1 [Compound 195b]", "IC50": "< 1000 nM"}
{"molecule": "Nc1nccc2c(-c3ccc4c(c3)C(COc3ccccc3CC(=O)O)CC43CCCC3)cccc12 (stereo not drawn) [Compound 403a]", "IC50": "< 1000 nM"}
{"molecule": "CC(C)n1nc(COc2ccccc2CC(=O)O)c2cc(-c3ccc4oc(N)nc4c3)ccc21 [Compound 27c]", "IC50": "> 10000 nM"}

Entry CC(C)n1nc(COc2ccccc2CC(=O)O)c2cc(-c3cccc(-c4cnc[nH]4)c3)ccc21 [Compound 51c] , IC50 reported as > 10000 nM

----------
biological target: recombinant human KLK5 (Homo sapiens, UniProt Q9Y337); experiment: Kallikrein (KLK) 5 enzymatic assay (Boc-VPR-AMC fluorogenic substrate); details: recombinant human KLK5 0.1 μg/well, Boc-VPR-AMC 100 μM, pH 7.5, room temperature, 1% DMSO; tested a minimum of three times
pIC50: −log10 of the molar value.
readout.kind: pIC50

{"molecule": "CC(C)n1nc(COc2ccccc2CC(=O)O)c2cc(-c3ccc4c(N)nc(N)nc4c3)ccc21 [Compound 41c]", "observed.measurement": "< 5.00"}

Entry COc1ccc(CC(=O)O)c(OCc2nn(C)c3ccc(-c4cccc(C(=N)N)c4)cc23)c1 [Compound 101b] , pIC50 reported as > 6.00

Entry Nc1nccc2ccc(-c3ccc4c(c3)c(COc3ccccc3CC(=O)O)nn4C3CC(F)(F)C3)cc12 [Compound 11e] , pIC50 reported as > 6.00

Entry Nc1nccc2ccc(-c3ccc4c(c3)C(Oc3ccccc3CC(=O)O)CC4)cc12 (stereo not drawn) [Compound 199d] , pIC50 reported as > 6.00

Entry COC(=O)N1CCC2(CC1)CC(Oc1cc(C#N)ccc1CC(=O)O)c1cc(-c3cccc4c(N)nccc34)ccc12 (stereo not drawn) [Compound 411b] , pIC50 reported as > 6.00

Entry CC(C)n1nc(COc2ccccc2CC(=O)O)c2cc(-c3ccc4c(c3)[C@H](N)CO4)ccc21 [Compound 79c] , pIC50 reported as < 5.00

Entry CC(C(=O)O)c1ccccc1OCc1nn(C2CCOC2)c2ccc(-c3cccc4c(N)nccc34)cc12 (stereo not drawn) [Compound 241f] , pIC50 reported as > 6.00

Entry N=C(N)c1cccc(-c2cc(OCc3nccs3)c3occ(COc4ccccc4CC(=O)O)c3c2)c1 [Compound 228f] , pIC50 reported as > 6.00

Entry CC(C)n1nc(COc2ccccc2CC(=O)O)c2cc(-c3ccc4cnc(N)cc4c3)ccc21 [Compound 75c] , pIC50 reported as < 5.00

Entry CC(C)COC(=O)N1CC[C@H](n2nc(COc3ccccc3CC(=O)O)c3cc(-c4cccc5c(N)nccc45)ccc32)C1 [Compound 361b] , pIC50 reported as > 6.00
